# tested.system: human Werner helicase (WRN, amino acids 517-1235 with L1074F point mutation) (Homo sapiens (Human), UniProt Q14191, L1074F)
# Sequence (Q14191 other isoform, or with tags, fused parts or gaps L1074F (already in the parent)): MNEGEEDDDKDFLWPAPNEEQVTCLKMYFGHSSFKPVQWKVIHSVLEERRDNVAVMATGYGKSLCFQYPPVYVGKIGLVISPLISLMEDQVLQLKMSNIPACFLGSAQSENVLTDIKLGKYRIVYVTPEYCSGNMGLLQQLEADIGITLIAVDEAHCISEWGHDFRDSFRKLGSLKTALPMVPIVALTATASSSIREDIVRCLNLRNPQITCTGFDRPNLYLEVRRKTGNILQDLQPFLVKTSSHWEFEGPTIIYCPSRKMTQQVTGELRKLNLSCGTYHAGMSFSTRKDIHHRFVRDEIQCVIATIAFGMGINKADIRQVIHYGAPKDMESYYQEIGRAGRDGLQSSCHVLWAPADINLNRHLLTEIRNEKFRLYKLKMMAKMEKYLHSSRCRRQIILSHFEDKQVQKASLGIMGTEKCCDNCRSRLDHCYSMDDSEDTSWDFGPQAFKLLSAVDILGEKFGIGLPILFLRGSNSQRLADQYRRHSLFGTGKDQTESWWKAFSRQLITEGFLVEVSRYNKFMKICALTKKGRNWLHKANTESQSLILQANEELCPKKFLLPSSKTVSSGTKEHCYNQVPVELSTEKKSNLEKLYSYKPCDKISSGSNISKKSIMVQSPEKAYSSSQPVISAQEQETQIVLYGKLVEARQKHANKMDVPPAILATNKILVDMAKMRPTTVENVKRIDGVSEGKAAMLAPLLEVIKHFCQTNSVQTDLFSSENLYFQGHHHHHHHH
# method.summary: WRN (BV08) ADP-Glo assay
# condition.set: human WRN (aa 517-1235, L1074F), read-out: ADP-Glo_hWRN_IC50
pIC50: −log10 of the molar value.
measurement.kind: pIC50

Study these solved cases before continuing.
CCc1c(N2CCN(C(=O)c3ncnc(C)c3O)[C@H]3CC[C@@H]32)c(=O)c2nn(-c3cccc(C)n3)nc2n1CC(=O)NC12CC(C(C)C)(C1)C2 [Compound I-179] | 7.30 to 8.30
CCc1c(N2CCN(C(=O)c3ncnc(C)c3O)[C@H]3CC[C@@H]32)c(=O)c2nn(-c3ccnc(OC)c3)nc2n1CC(=O)Nc1ccc(C(F)F)cc1F [Compound I-83] | ≥ 8.30
CCc1c(N2CCN(C(=O)c3c(OC)ncc(C)c3O)[C@H]3CC[C@@H]32)c(=O)c2nn(-c3ccnc(C)c3)nc2n1CC(=O)Nc1ccc(C(F)(F)F)cc1F [Compound I-95] | ≥ 8.30
CCc1c(N2CCN(C(=O)c3c(OC)ncc(C)c3O)CC2)c(=O)c2nn(-c3ccnc(OC)c3)nc2n1CC(=O)NC1CC2(C1)CC(C)(C)C2 [Compound I-105] | 7.30 to 8.30
CCc1c(N2CCN(C(=O)c3ncnc(C)c3O)CC2)c(=O)c2nn(-c3ccnc(OC)c3)nc2n1CC(=O)NC12CC(C(F)(F)F)(C1)C2 [Compound I-5] | 7.30 to 8.30

Shifting focus to the compound that follows.
[ask] Name the recorded pIC50 for CCc1c(N2CCN(C(=O)c3ncnc(C)c3O)CC2)c(=O)c2nn(-c3ccn(C4CC4)n3)nc2n1CC(=O)Nc1ccc(C(F)(F)F)cc1Cl [Compound I-8] .
[reply] ≥ 8.30

---

# tested.system: human Werner helicase (WRN, amino acids 517-1235 with L1074F point mutation) (Homo sapiens (Human), UniProt Q14191, L1074F)
# method.summary: WRN (BV08) ADP-Glo assay
# condition.set: human WRN (aa 517-1235, L1074F), read-out: ADP-Glo_hWRN_IC50
measurement.kind: IC50

Would you please look over these solved cases?
CCc1c(N2CCN(C(=O)c3ncnc(C)c3O)[C@H]3CC[C@@H]32)c(=O)c2nn(-c3ccnc(OC)c3)nc2n1CC(=O)NC1CC2(C1)CC(F)(F)C2 | 5 to 50 nM
CCc1c(N2CCN(C(=O)c3cncnc3OC)[C@H]3CC[C@@H]32)c(=O)c2nn(C3=CCOCC3)nc2n1CC(=O)NC12CC(C(C)C)(C1)C2 | 5 to 50 nM
CCc1c(N2CCN(C(=O)c3ccncc3OC)[C@H]3CC[C@@H]32)c(=O)c2nn(C3=CCOCC3)nc2n1CC(=O)NC12CC(C(C)C)(C1)C2 | 5 to 50 nM
CCc1c(N2CCN(C(=O)c3ncnc(C)c3O)CC2)c(=O)c2nn(-c3ccncc3)nc2n1CC(=O)Nc1ccc(C(F)(F)F)cc1Cl | ≤ 5 nM
CCc1c(N2CCN(C(=O)c3cccnc3OC)[C@H]3CC[C@@H]32)c(=O)c2nn(C3=CCOCC3)nc2n1CC(=O)NC12CC(C(C)C)(C1)C2 | 5 to 50 nM

[ask] Given the entry "CCc1c(N2CCN(C(=O)c3cccc4ccoc34)[C@H]3CC[C@@H]32)c(=O)c2nn(-c3ccnc(OC)c3)nc2n1CC(=O)Nc1ccc(C(F)(F)F)cc1Cl" , report its measured IC50.
[reply] 5 to 50 nM

[ask] Quick one: "CCc1c(N2CCN(C(=O)c3c(OC)ncc(C)c3O)[C@H]3CC[C@@H]32)c(=O)c2nn(-c3ccnc(OC)c3)nc2n1CC(=O)Nc1ccc(C(F)(F)F)cc1F"
[reply] ≤ 5 nM

[ask] Try this compound next: "CCc1c(N2CCN(C(=O)c3ncnc(C)c3O)[C@H]3CC[C@@H]32)c(=O)c2nn(C3CC3)nc2n1CC(=O)NC12CC(C3CC3)(C1)C2"
[reply] 5 to 50 nM
